Source of measurements: paper PMC6650976

Target: the molecule itself
Assay: cross-linking; Ca2+-loaded proteins: 0.02% glutaric aldehyde, 16 h, 20 °C, protein 1 mg/mL, 20 mM Tricine-KOH pH 7.4, 50 mM KCl, 1 mM DTT, 1 mM CaCl2; SDS-PAGE, Coomassie, densitometry; self-association
Experimental readout: Multimer 100–250 kDa, % (%)
# output: bare number, implied unit %

**Query** Param item = human recoverin mutant Q46A (natural protein, UniProt P35243 1-200, looked up, myristoylated (fraction of non-myristoylated forms did not exceed 16%), recoverin, human, UniProt P35243, N-terminal 'gray' cluster mutant; Parent construct as m1; source: E. coli, expressed and purified similarly to the rWT protein (phenyl-Sepharose, Toyopearl SuperQ-650M)) MGNSKSGALSKEILEELQLNTKFSEEELCSWYQSFLKDCPTGRITAQQFQSIYAKFFPDTDPKAYAQHVFRSFDSNLDGTLDFKEYVIALHMTTAGKTNQKLEWAFSLYDVDGNGTISKNEVLEIVMAIFKMITPEDVKLLPDDENTPEKRAEKIWKYFGKNDDDKLTEKEFIEGTLANKEILRLIQFEPQKVKEKMKNA ; retrieve measured Multimer 100–250 kDa, %.
**Result** 18.4
